Subject Of Test: Leucine-rich repeat serine/threonine-protein kinase 2 (Homo sapiens, UniProt Q5S007)
Sequence (Q5S007 whole entry): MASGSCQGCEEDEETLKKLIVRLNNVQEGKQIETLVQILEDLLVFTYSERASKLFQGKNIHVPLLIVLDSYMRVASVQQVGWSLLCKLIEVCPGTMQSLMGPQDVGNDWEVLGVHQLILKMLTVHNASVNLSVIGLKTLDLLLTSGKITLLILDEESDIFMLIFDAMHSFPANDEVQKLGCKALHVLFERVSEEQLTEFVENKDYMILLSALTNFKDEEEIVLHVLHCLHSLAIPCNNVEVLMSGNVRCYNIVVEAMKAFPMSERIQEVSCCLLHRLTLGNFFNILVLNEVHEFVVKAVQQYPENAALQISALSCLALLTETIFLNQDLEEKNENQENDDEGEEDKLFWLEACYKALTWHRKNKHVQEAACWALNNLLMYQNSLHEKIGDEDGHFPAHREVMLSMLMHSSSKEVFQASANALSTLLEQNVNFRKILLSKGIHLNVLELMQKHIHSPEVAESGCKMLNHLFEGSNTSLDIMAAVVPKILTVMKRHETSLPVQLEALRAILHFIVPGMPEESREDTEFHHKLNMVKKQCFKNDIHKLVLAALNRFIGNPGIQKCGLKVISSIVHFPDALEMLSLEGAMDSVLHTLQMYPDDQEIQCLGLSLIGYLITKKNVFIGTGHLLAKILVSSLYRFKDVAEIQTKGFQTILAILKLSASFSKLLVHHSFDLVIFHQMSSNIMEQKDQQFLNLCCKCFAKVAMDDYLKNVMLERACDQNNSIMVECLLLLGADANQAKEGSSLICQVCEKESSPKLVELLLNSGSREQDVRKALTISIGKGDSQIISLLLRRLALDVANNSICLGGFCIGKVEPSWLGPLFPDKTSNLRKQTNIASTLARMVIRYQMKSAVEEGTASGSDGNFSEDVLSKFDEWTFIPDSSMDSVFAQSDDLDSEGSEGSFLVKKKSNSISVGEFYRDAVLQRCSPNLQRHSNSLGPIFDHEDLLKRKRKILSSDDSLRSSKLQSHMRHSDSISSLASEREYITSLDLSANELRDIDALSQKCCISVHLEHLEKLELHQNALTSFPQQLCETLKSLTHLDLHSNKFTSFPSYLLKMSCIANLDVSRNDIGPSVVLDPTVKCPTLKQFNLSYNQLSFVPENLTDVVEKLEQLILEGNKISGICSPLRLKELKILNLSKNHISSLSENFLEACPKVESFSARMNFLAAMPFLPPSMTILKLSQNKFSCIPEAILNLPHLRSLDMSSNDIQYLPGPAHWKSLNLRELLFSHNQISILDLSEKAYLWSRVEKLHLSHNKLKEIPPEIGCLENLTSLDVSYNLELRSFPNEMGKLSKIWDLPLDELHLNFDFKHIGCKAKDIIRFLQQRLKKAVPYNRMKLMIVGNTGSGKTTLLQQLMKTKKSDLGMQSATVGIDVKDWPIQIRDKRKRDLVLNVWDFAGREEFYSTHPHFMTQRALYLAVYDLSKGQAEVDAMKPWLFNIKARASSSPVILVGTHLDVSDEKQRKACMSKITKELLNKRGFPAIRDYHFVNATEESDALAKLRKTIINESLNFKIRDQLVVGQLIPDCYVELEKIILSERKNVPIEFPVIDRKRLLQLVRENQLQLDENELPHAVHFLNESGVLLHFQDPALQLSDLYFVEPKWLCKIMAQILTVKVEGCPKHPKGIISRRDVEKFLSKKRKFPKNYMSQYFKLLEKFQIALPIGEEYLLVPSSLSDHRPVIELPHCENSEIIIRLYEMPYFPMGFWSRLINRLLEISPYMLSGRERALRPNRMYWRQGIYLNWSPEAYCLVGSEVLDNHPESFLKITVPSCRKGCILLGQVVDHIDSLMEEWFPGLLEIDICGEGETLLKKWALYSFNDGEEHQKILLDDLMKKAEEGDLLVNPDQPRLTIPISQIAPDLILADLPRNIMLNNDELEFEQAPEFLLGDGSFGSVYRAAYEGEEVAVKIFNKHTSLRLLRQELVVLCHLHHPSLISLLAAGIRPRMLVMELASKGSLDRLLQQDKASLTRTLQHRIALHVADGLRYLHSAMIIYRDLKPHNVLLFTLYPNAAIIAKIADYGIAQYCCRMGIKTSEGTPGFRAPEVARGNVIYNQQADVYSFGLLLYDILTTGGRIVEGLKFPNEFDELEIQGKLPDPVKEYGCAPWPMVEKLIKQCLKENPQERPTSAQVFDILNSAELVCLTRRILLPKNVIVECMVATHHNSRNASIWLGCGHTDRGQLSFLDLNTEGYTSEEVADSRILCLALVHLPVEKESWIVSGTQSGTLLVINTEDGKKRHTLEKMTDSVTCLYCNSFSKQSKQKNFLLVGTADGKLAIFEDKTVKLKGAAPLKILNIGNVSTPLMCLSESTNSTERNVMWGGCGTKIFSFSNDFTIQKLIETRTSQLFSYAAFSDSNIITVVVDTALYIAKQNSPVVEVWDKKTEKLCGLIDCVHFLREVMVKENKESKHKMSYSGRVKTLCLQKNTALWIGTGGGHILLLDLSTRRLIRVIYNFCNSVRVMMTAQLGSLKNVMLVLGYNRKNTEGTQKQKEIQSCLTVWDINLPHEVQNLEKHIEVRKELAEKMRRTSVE
Experiment: Biochemical Assay
Reported Metric: IC50

CNc1nc(Nc2ccc(F)c3[nH]ncc23)ncc1C(F)(F)F [US20240174647, Example 27]; < 50 nM
